src = the nanobody polyreactivity screen of Harvey et al. (2022)

assay: yeast display, Sf9 membrane polyspecificity reagent, FACS + sequencing; frameworks hold sequencing errors
measured_metric: polyreactivity (PSR sort gate)

QVQLVESGGGLVQAGGSLRLSSAASGITFKYYVMGWYRQAPGKEREFVAAISWGGGSTYYADSVKGRFTISRDNAKITVYLQMNSLKPEDTAVYYCATSHGLYTRWYDYWGQGTQVTVSS ... high polyreactivity
QVQLVESGGGLVQAGGSLRLSCAASGSTFGSYAMGWYRHAPGKERELVAAINGGSSTNYADSVKGRFTISRDNAKNTVYLQMNSLKPEDTAVYYCNATETHRLYDSWGQGTQVTVSS ... low polyreactivity
QVQLVESGGGLVQAGGRLRLSCAPSGSTFSTYAMGSYRQAPGNERELVAVITWRGGSTYYADSVKGRFTISRDNAKNTVYLQMNSLKPEDTAVYYCAAEGESPEYDYWGQGTQVTVSS ... low polyreactivity
QVQLVESAGGLVQAAGSLRLSCDASGFIFGTNAMGWYRQAPGKERELVAAINGRGGGTYYADSVKGRFTISRDNAKNTVYLQMNSLKPEDTAVYYCAASRFDYWGQGTQVTVSS ... low polyreactivity

Consider the record given below.
Output measured polyreactivity (PSR sort gate) for this item: QVQLVESGGGLVQAGGSLRLSCAASGYIFAIYAMGCYRQAPGKERELVAAISTSGGSTYYADSVKGRFTISRDNAKNTVYLQMNSLKPDDTAVYYCARPTTYGYYYWGQGTQVTVSS
high polyreactivity

====

test: yeast display, Sf9 membrane polyspecificity reagent, FACS + sequencing; frameworks hold sequencing errors
measured_metric: polyreactivity (PSR sort gate)

QVQLVESGGGLVQAGGSLRISCAASGSIFDTNPMGWYRQAPGKERELVAAITSSGASTYYADSVKGRFTISRDNAKNTVYLQMNSLKPEDTAVYYCAADGAVDGGYWGQGTQVTVSS ... low polyreactivity
QVQLVESGGGLVQAGGSLRLSCAASGRIFAHFAMGGYRQAPGKEWELVAAIDSGGSTDYADSVKGRFTISRDNAKNTVYLQMNSLKPEDTAVYYCNAERAYLWWYNFDYWGQGTQVTVSS ... low polyreactivity
QVQLVESGGGLVQAGGSLRLSCAASGRISSVYAMGLYRQAPGKERELVAGITWSDARTYYADSVKGRFTISRDNAKNTVYLQMNSLKPEDTAVYYCAADYYYYERDYWGQGTQVTVSS ... low polyreactivity
QVQLVESGGGLVQAGGSLRLSCAASGSTFSYYAMGWYRQAPWKERELVAASTAGGGSTYYADSVKGRFTISRDNAKNTVYLHMNSLKPEDTAVYYCNADQIFGPALNLWKLDYWGQGTQVTVSS ... low polyreactivity
QVQLVESGGGLVQAGGSLRLSCAASGLIFKVYAMGWYRQAPWKERELVAAITYSGGSTDYADSVKGRFTISRDNAKNTVYLQMNSLTPEDTAVYYCNVEKVGHVNSYGYDYWGQGTQVNVSS ... low polyreactivity

Output measured polyreactivity (PSR sort gate) for this item: QVQLVESGGGLVQAGGSLRLSCAASGFIFRYYAMGWYRPAPGKERELVATISSGGGTHYADSVKGRFTISRDNAKNTVYLQMNSLKPEDAAVYYCNARGYRRLRTRVDYWGQGTQVTVSS
high polyreactivity

Output measured polyreactivity (PSR sort gate) for this item: QVQLVESGGGLVQAGGSLRLSCAASGSIFDRNAMGWYRQAPGIERELVAAITSRGGSTYYADSVKGRFTISRDNAKNTVYLQMNSLKPEDTAVYYCAARYSSRGTYPRRYDYWGQGTQVTVSS
high polyreactivity

Output measured polyreactivity (PSR sort gate) for this item: QVQLVESGGGLVQAGGSLRLSCAASGNIFDEYTMGWYRQAPGKERELVAGISWSGSHTYYADSVKGRFTISRDNAKNTVYLQMNSLKPEDTAVYYCIADSYPDYTGPGLDWYDYWGQGTQVTVSS
low polyreactivity

Output measured polyreactivity (PSR sort gate) for this item: QVQLVESGGGLVQAGGSLRLSCADSGNTFYVDTMGWYREAPGKESELVAAIYSTGDRTYYADSLKGRFTISRYKAKNTVYLQMNRLKPEDTAVYYWAARLYRGSLGYYFWGQVTQVTVSS
high polyreactivity
